List of apparent KD of K4 kissing-loop reporter values.
test system: K4 kissing-loop RNA reporter; experiment: apparent KD of K4 kissing-loop reporter; higher = weaker reporter binding; details: Eterna round: R107; input ligand: arginine 13.2 mM;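 also: bound reporter read as fluorescence of individual clusters on recovered sequencing chips by microscopy, with normalized cluster intensities fitted with a binding model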
Unit nM implied. Number only.

GGAUAGGAUAGAGGAUAUGGUAGUGAUGUUACCAAACUGGUUAAACAUGUCAGAAAACUGGCAUGACCAGAAGGCUGUCCUAUCG [FmnBX 27 U9]
63.4
UGACAUUGCUCAGAUACCAGACAUGAGCAUCAGCCAUGUGCCAACGUACAAAUAAUAAAUGUCCCUUGGCAGCUGAGCAAUGUCU [TheoBX 15]
25.8
GAUUCAGUGAUGUUGGAAGGCGAGCGGGAUACCAGCGGAGACUCACGCCCUUGGCAGCCCACAUAUCCCAGGUAGAUAAUAGAUC [Same State - Theophylline A (Freestyle 7)]
123
UAACAGUCUACGGCCGCCACUGACAAUCGGCAAGCAACAUGUGGGUGCGUAGUGAUGUUACAUAUCAGGACCGGGUAAGACAAAU [theeternabot_sameState_KL_Trp_B_32]
392
UGUCAUGGAAACAUGACCGUUAAAAUAAAUCGAGGACCGGUACGGCCGCCACUCGUAUAGCGGUCAGUGAUGUUGACUGUAGUAC [KL-SSTryp-A form2 sub12 #dotplot2>1]
428

Query: Query apparent KD of K4 kissing-loop reporter for UCCACGCUUAGAGGAUAUCGGAUUAGAGUGAUGUUCUAAAGAAGCCCAGUGAUGUUGGAUGGUAUACGAGAAGGCUGUGGCGUGU [Same State FMN B GF 4]
Reply: 446
